Recorded values, source paper PMC9027083.

Assay Target: T1, recombinant MBP-EDIII of DENV1 (Dengue virus 1, strain Guiana/FGA89/1989, strain)
T1 construct: also called DENV1 EDIII; envelope protein domain III of DENV1; not shown: MBP, N-terminal, kept
Experimental Protocol: SPR
Run Parameters: both partners purified
Please respond with reported pKd for every item in the list.
Numbers only, as −log10 of the molar value.

Some solved cases for reference:
- 1A1D-2 Fab A54E.H (Fab, V domains shown) VH: EVQLQQSGAELVKPGASVKLSCTASGFNIKDTYMHWVKQRPEQGLEWIGRIDPENGYSKYDPKFQGKATITADTSSNAAYLQLSSLTSEDTAVYFCARDYEGFAYWGQGTLVTVSS VL: DIVLTQSPASLAVSLGQRATISCRASESVVRYGNSFMHWYQQKPGQPPKLLIYRASSLESGIPTRFSGSGSRTDFTLTINPVEADDVATYYCQQTNVDPWAFGGGTKLEIK: 6.85
- 1A1D-2 Fab Y105R.H (Fab, V domains shown) VH: EVQLQQSGAELVKPGASVKLSCTASGFNIKDTYMHWVKQRPEQGLEWIGRIDPANGYSKYDPKFQGKATITADTSSNAAYLQLSSLTSEDTAVYFCARDYEGFARWGQGTLVTVSS VL: DIVLTQSPASLAVSLGQRATISCRASESVVRYGNSFMHWYQQKPGQPPKLLIYRASSLESGIPTRFSGSGSRTDFTLTINPVEADDVATYYCQQTNVDPWAFGGGTKLEIK: 7.37
- 1A1D-2 Fab A54E-Y105R double mutant (Fab, V domains shown) VH: EVQLQQSGAELVKPGASVKLSCTASGFNIKDTYMHWVKQRPEQGLEWIGRIDPENGYSKYDPKFQGKATITADTSSNAAYLQLSSLTSEDTAVYFCARDYEGFARWGQGTLVTVSS VL: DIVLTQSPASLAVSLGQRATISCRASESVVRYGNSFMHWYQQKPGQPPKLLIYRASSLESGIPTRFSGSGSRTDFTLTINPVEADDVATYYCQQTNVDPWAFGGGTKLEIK: 7.56

Now look at this one.
binder 1A1D-2 Fab WT (Fab, V domains shown, also called 1A1D-2 WT) VH: EVQLQQSGAELVKPGASVKLSCTASGFNIKDTYMHWVKQRPEQGLEWIGRIDPANGYSKYDPKFQGKATITADTSSNAAYLQLSSLTSEDTAVYFCARDYEGFAYWGQGTLVTVSS VL: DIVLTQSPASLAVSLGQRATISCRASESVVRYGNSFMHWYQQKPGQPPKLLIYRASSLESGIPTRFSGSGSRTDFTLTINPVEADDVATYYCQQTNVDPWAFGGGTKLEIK , pKd observed: 6.67
